assay overview: P. aeruginosa biofilm formation inhibitors, primary screen, strain PAO1, LB-PBS medium, absorbance 600 nm (AID 1176); also: test concentration not given here
condition details: P. aeruginosa PAO1 growth/biofilm, A600, 12 h; higher = more signal
observed property: z-score

>  <molecule>
COCCOC(=O)N1C(=O)[C@@]2(c3cc(C#CC4=CCCCC4)ccc31)[C@H](C(=O)N1CCc3cc(OC)c(OC)cc3C1)[C@H]1C(=O)O[C@H](c3ccccc3)[C@H](c3ccccc3)N1[C@@H]2c1ccc(OCCO)cc1

>  <endpoint result>
3.64

$$$$
>  <molecule>
COC(=O)[C@@]1(Cc2ccc(F)cc2)[C@@H]2[C@@H](CC(=O)[C@H]2CC(=O)C(=O)N(C)C)CN1C(=O)c1ccccc1

>  <endpoint result>
0.784

$$$$
>  <molecule>
CCCC=C(CCC)[C@@H](NC(=O)Oc1ccc(F)cc1)c1ccc(C(=O)OC)cc1

>  <endpoint result>
0.535

$$$$
>  <molecule>
O=C1c2ccccc2[C@@]2(Cc3ccccc3N(CCN3CCOCC3)C2=O)[C@H](c2ccc(CO)cc2)N1Cc1ccccc1

>  <endpoint result>
0.168

$$$$
>  <molecule>
COc1ccc([Si](C)(C)[C@@H]2[C@@H](CCO)O[C@]3(C(=O)N(Cc4ccc(N5C(=O)COc6ccccc65)cc4)c4ccccc43)[C@H]2C)cc1

>  <endpoint result>
2.5

$$$$
>  <molecule>
C=CC[C@]1(C(=O)N2CCCCC2)N=C(c2ccc(OCCCO)cc2)O[C@H]1c1ccccc1

>  <endpoint result>
-0.481

$$$$
>  <molecule>
C=CCNC(=O)[C@H]1[C@@H]2C(=O)O[C@@H](c3ccccc3)[C@@H](c3ccccc3)N2[C@@H](c2ccc(OCCO)cc2)[C@]12C(=O)Nc1ccc(C#CC3=CCCCC3)cc12

>  <endpoint result>
0.269

$$$$
>  <molecule>
CC(C)C[C@@H]1NC(=O)[C@@H]2C[C@H](C(=O)NCCCCCN)[C@H](c3cccc(OCCO)c3)N2C1=O

>  <endpoint result>
0.792

$$$$
>  <molecule>
Cc1ccc(S[C@]2(C(=O)NCC(C)C)CC(=O)N(Cc3cc(C(F)(F)F)cc(C(F)(F)F)c3)[C@@H]2c2ccc(CO)cc2I)cc1

>  <endpoint result>
-0.522

$$$$
>  <molecule>
O=C(NCc1ccccc1)[C@@]1(CCS(=O)(=O)c2ccccc2)N=C(c2ccc(OCCCO)cc2)O[C@H]1c1ccccc1

>  <endpoint result>
-0.0304

$$$$
>  <molecule>
CCCCCC1=C2CNC(CCC)(C(=O)OC)C=C2C(C)C1=O (stereo not drawn)

>  <endpoint result>
0.796

$$$$
>  <molecule>
O=C1OCC=C[C@H]2OC34C=CCN(CCN5CCOCC5)C(=O)[C@H]3N(CCCO)C(=O)[C@@H]4[C@@H]12 (stereo partly drawn)

>  <endpoint result>
-0.385

$$$$
>  <molecule>
CC(CO)N1C(=O)[C@@H]2C3C(=O)OCCC/C=C\[C@H]3OC23C=CCN(c2ccc4ccccc4c2)C(=O)[C@@H]13 (stereo partly drawn)

>  <endpoint result>
-0.456

$$$$
>  <molecule>
O=C1NC(=O)C2C1C=CC(C(O)C(c1ccccc1)c1ccccc1)N2Nc1ccc(Cl)cc1Cl (stereo not drawn)

>  <endpoint result>
0.599

$$$$
>  <molecule>
COc1ccc([Si](C)(C)[C@H]2[C@H](CCn3cc([C@H](O)c4ccccc4)nn3)O[C@@]3(C(=O)N(Cc4cccc(N5CCOC5=O)c4)c4ccccc43)[C@@H]2C)cc1

>  <endpoint result>
1.43

$$$$
>  <molecule>
C=C[C@H](COC(C)=O)N(C(=O)OC(C)(C)C)S(=O)(=O)c1ccc(Br)cc1

>  <endpoint result>
-0.621

$$$$
>  <molecule>
O=C(NCc1ccc(F)cc1)[C@H]1C[C@H]2C(=O)N[C@@H](Cc3ccccc3)C(=O)N2[C@H]1c1ccc(O)cc1

>  <endpoint result>
-0.0185

$$$$
>  <molecule>
O=C(NCc1ccccc1)[C@@H]1c2ccccc2C(=O)N(CC23CC4CC(CC(C4)C2)C3)[C@H]1c1ccc(CO)cc1

>  <endpoint result>
-0.245

$$$$
>  <molecule>
COc1ccc(C(=O)O[C@H]2CC[C@]3(C)C4=C(CCC3C2(C)C)[C@]2(C)CC[C@H]([C@H](C)CCCC(C)C)[C@@]2(C)CC4)cc1 (stereo partly drawn)

>  <endpoint result>
0.814

$$$$
>  <molecule>
COCCOC(=O)N1C(=O)[C@@]2(c3cc(C#CCCO)ccc31)[C@H](C(=O)N1CCN(c3ncccn3)CC1)[C@H]1C(=O)O[C@H](c3ccccc3)[C@H](c3ccccc3)N1[C@@H]2c1ccccc1OCCO

>  <endpoint result>
-0.116

$$$$
>  <molecule>
CCCCN1CC=CC23O[C@@H]4/C=C\CCC(C)OC(=O)C4[C@H]2C(=O)N(CCCCCO)[C@@H]3C1=O (stereo partly drawn)

>  <endpoint result>
0.646

$$$$
>  <molecule>
CCOC(=O)[C@H]1C/C=C/C[C@H](C(=O)OCC)C(=O)O[C@H]2[C@@H](OC)O[C@H](CO)[C@@H](OC(=O)Nc3ccc(C#N)cc3)[C@@H]2OC1=O

>  <endpoint result>
1.94

$$$$
>  <molecule>
CN(C)C(=O)[C@]1(Cc2ccccc2CN=[N+]=[N-])N=C(c2ccc(OCCCO)cc2)O[C@@H]1c1ccccc1CN=[N+]=[N-]

>  <endpoint result>
1.06

$$$$
>  <molecule>
COCC(=C=CC[C@H](O)c1ccccc1OCCO)C[C@H](O)c1cc(Cl)cc(Cl)c1O

>  <endpoint result>
-0.0828

$$$$
>  <molecule>
O=C1O[C@H](c2ccccc2)[C@H](c2ccccc2)N2[C@H]1[C@@H](C(=O)N1CCN(c3ncccn3)CC1)[C@]1(C(=O)Nc3ccc(C#CC4=CCCCC4)cc31)[C@H]2c1ccc(O)cc1

>  <endpoint result>
0.902

$$$$
>  <molecule>
CN1C(=O)C2C=CC(C(O)c3cc(C(F)(F)F)cc(C(F)(F)F)c3)N(N3CCCCC3)C2C1=O (stereo not drawn)

>  <endpoint result>
0.049

$$$$
>  <molecule>
CCCCCN1CC=CC23O[C@@H]4/C=C\CCCOC(=O)C4[C@H]2C(=O)N(C(CO)C(C)C)[C@@H]3C1=O (stereo partly drawn)

>  <endpoint result>
-0.124

$$$$
>  <molecule>
CN1C(=O)C2C=CC(C(O)Cc3ccccc3)N(Nc3ccccc3)C2C1=O (stereo not drawn)

>  <endpoint result>
1.07

$$$$

* * *

assay overview: E. coli acrAB mutant growth effects, primary screen, E. coli filamentation inducers, strain DRC39, OD650, 48 h (AID 1179);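 also: screen aims at cell division blockers that make cells filament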
condition details: E. coli DRC39 delta-acrAB growth, higher = more signal, called active from +8 up or from −8 down
z-score: recorded values
observed property: z-score

>  <compound>
O=C(C1N=C(c2ccc(OCCCO)cc2)N(c2ccccc2)O1)N1CCOCC1 (centres undefined)

>  <endpoint result>
1.92

$$$$
>  <compound>
COc1cc2c(cc1O)C(C1CC1)N(Cc1cc3c(cc1Br)OCO3)CC2 (centres undefined)

>  <endpoint result>
-1.71

$$$$
>  <compound>
C=CCOC(=O)[C@@H]1[C@H]2C(=O)O[C@H](c3ccccc3)[C@H](c3ccccc3)N2[C@H](c2ccc(OCCOC(=O)[C@@H]3C[C@@H]4C(=O)N[C@@H](CCCC[N+](C)(C)C)C(=O)N4[C@@H]3c3cccc(OCCO)c3)cc2)[C@@]12C(=O)Nc1ccc(I)cc12

>  <endpoint result>
-0.659

$$$$
>  <compound>
O=C1C2C=CC(C(O)c3c(F)cccc3Cl)N(Nc3ccccc3)C2C(=O)N1c1ccccc1 (centres undefined)

>  <endpoint result>
1.28

$$$$

* * *

z-score: recorded values
assay overview: E. coli DRC41 culture turbidity changes, primary screen, E. coli filamentation inducer project, strain DRC41, OD650, 48 h (AID 1152);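 also: E. coli MC1000 strain DRC41 lacking acrAB efflux pump and sulA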
condition details: E. coli DRC41 (acrAB sulA), higher = more signal, called active from +8 up or from −8 down
Calls of active or inactive are those of the source.
observed property: z-score

>  <molecule>
CCOc1cc(C(O)C2C=CC3C(=O)N(c4ccccc4)C(=O)C3N2Nc2ccccc2)ccc1O (centres undefined)

>  <endpoint result>
-0.39 (inactive)

$$$$
>  <molecule>
COCCOC(=O)N1C(=O)[C@@]2(c3cc(C#Cc4ccc(OC)cc4)ccc31)[C@H](c1ccccc1OCCO)N1[C@H](c3ccccc3)[C@H](c3ccccc3)OC(=O)[C@H]1[C@@H]2C(=O)N1CCN(c2ncccn2)CC1

>  <endpoint result>
0.148 (inactive)

$$$$
>  <molecule>
COc1cc2c(cc1OC)CN(C(=O)[C@H]1[C@@H]3C(=O)O[C@@H](c4ccccc4)[C@@H](c4ccccc4)N3[C@@H](c3ccc(O)cc3)[C@]13C(=O)Nc1ccc(C#CCNC(N)=O)cc13)CC2

>  <endpoint result>
0.595 (inactive)

$$$$
>  <molecule>
O=C1OCCC=C[C@H]2OC34C=CCN(CCN5CCOCC5)C(=O)[C@H]3N(CCCCCCO)C(=O)[C@@H]4C12 (some centres undefined)

>  <endpoint result>
0.36 (inactive)

$$$$
>  <molecule>
CC(C)C[C@@H]1NC(=O)[C@H]2C[C@@H](C(=O)NCCCCCCN)[C@@H](c3ccc(O)cc3)N2C1=O

>  <endpoint result>
-0.63 (inactive)

$$$$
>  <molecule>
O=C1OCC=C[C@H]2OC34C=CCN(c5ccc6ccccc6c5)C(=O)[C@H]3N(CCCCCCO)C(=O)[C@@H]4[C@@H]12 (some centres undefined)

>  <endpoint result>
-0.0903 (inactive)

$$$$
>  <molecule>
Cc1ccc(S[C@]2(C(=O)NCCN3CCOCC3)CC(=O)N(Cc3ccccc3Cl)[C@@H]2c2ccc(CO)cc2)cc1

>  <endpoint result>
0.59 (inactive)

$$$$
>  <molecule>
CN(C)C(=O)[C@@]1(Cc2ccccc2CN=[N+]=[N-])N=C(c2ccc(OCCCO)cc2)O[C@H]1c1ccccc1

>  <endpoint result>
0.381 (inactive)

$$$$
>  <molecule>
CC(C)(C)OC(=O)CC[C@]1(C(=O)O)N=C(c2ccc(OCCCO)cc2)O[C@H]1c1ccccc1N=[N+]=[N-]

>  <endpoint result>
0.234 (inactive)

$$$$
>  <molecule>
COC(=O)[C@@]1(Cc2ccc(F)cc2)[C@H]2c3cc(C(=O)N4CCCC4)n(Cc4ccc(C)o4)c3C[C@H]2CN1C(=O)c1ccccc1

>  <endpoint result>
-1.63 (inactive)

$$$$
>  <molecule>
CC(C)(C)OC(=O)CC[C@@]1(C(=O)NCC(O)CO)N=C(c2ccc(OCCCO)cc2)O[C@@H]1c1ccccc1N=[N+]=[N-] (some centres undefined)

>  <endpoint result>
1.99 (inactive)

$$$$
>  <molecule>
O=C1c2ccccc2[C@@]2(Cc3ccccc3N(CC(F)(F)F)C2=O)[C@H](c2ccc(CO)cc2)N1Cc1ccccc1Cl

>  <endpoint result>
0.606 (inactive)

$$$$
>  <molecule>
C=CCC(OC(C)=O)[C@@H]1[C@@H](N(Cc2cccc3ccccc23)C(=O)c2ccc(-c3ccccc3)cc2)c2cc(OCCCO)ccc2N1C(=O)Cc1ccc(OC)cc1 (some centres undefined)

>  <endpoint result>
0.571 (inactive)

$$$$
>  <molecule>
COc1ccc([Si](C)(C)[C@@H]2[C@@H](CC(=O)N3Cc4ccccc4C[C@H]3CO)O[C@]3(C(=O)N(C)c4c(Br)cc(C)cc43)[C@H]2C)cc1

>  <endpoint result>
0.0945 (inactive)

$$$$
>  <molecule>
CN1C2C=C(CCCO)C(C3C(=O)N(C(N)=O)C(=O)C32)C1c1ccc(CN2CCCC2)cc1 (centres undefined)

>  <endpoint result>
0.0489 (inactive)

$$$$
>  <molecule>
COC(=O)[C@@]1(Cc2ccc(OC)cc2)[C@H]2c3cc(C(=O)N4CCCC4)n(Cc4ccccc4)c3C[C@H]2CN1C(=O)c1ccccc1

>  <endpoint result>
-1.49 (inactive)

$$$$
>  <molecule>
C=CCNC(=O)[C@H]1[C@@H]2C(=O)O[C@@H](c3ccccc3)[C@@H](c3ccccc3)N2[C@@H](c2ccccc2OCCO)[C@]12C(=O)Nc1ccc(C#CC3=CCCCC3)cc12

>  <endpoint result>
0.748 (inactive)

$$$$
>  <molecule>
O=C1OCCC/C=C\[C@H]2OC34C=CCN(c5ccc6ccccc6c5)C(=O)[C@H]3N(CCCCCCO)C(=O)[C@@H]4C12 (some centres undefined)

>  <endpoint result>
1.63 (inactive)

$$$$
>  <molecule>
[N-]=[N+]=NCc1ccccc1C[C@]1(C(=O)O)N=C(c2ccc(OCCCO)cc2)O[C@H]1c1ccccc1N=[N+]=[N-]

>  <endpoint result>
0.23 (inactive)

$$$$
>  <molecule>
COCC(=C=CC[C@H](O)c1ccccc1OCCO)C[C@H](O)c1cc(Cl)cc(Cl)c1O

>  <endpoint result>
-0.381 (inactive)

$$$$
>  <molecule>
O=C1C2C=CC(C(O)c3ccc(F)cc3)N(Nc3ccccc3F)C2C(=O)N1c1ccccc1 (centres undefined)

>  <endpoint result>
-1.13 (inactive)

$$$$
>  <molecule>
CCOC(=O)C=Cc1cc([N+](=O)[O-])ccc1O

>  <endpoint result>
-1.72 (inactive)

$$$$
>  <molecule>
COCCOC(=O)N1C(=O)[C@@]2(c3cc(C#CC4=CCCCC4)ccc31)[C@H](C(N)=O)[C@H]1C(=O)O[C@H](c3ccccc3)[C@H](c3ccccc3)N1[C@@H]2c1ccc(OCCO)cc1

>  <endpoint result>
0.102 (inactive)

$$$$
>  <molecule>
CCOC(=O)[C@H]1C/C=C/C[C@H](C(=O)OCC)C(=O)O[C@H]2[C@@H](OC)O[C@H](CO)[C@@H](OC(=O)Nc3ccc(C#N)cc3)[C@@H]2OC1=O

>  <endpoint result>
3.06 (inactive)

$$$$
>  <molecule>
C=C(/C(=C/C[C@@H](OC(C)=O)c1ccc(OCCO)cc1)c1cnc2ccccc2c1)C(C)C

>  <endpoint result>
1.14 (inactive)

$$$$
>  <molecule>
[N-]=[N+]=NCc1ccccc1C[C@@]1(C(=O)NCC(O)CO)N=C(c2ccc(OCCCO)cc2)O[C@@H]1c1ccccc1N=[N+]=[N-] (some centres undefined)

>  <endpoint result>
0.458 (inactive)

$$$$
>  <molecule>
CCCC=C(CCC)[C@@H](NC(=O)Oc1ccc(F)cc1)c1ccc(C(=O)OC)cc1

>  <endpoint result>
-0.755 (inactive)

$$$$
>  <molecule>
O=C(NCC(F)(F)F)[C@@H]1c2ccccc2C(=O)N(C2CCCCC2)[C@H]1c1ccc(CO)cc1

>  <endpoint result>
-0.36 (inactive)

$$$$
>  <molecule>
C=C(CCCC)C(=O)CC[C@H](OC(=O)c1cccnc1)c1ccccc1OCCO

>  <endpoint result>
0.853 (inactive)

$$$$
